System: OVCAR-8
EXPERIMENT_NOTES: NCI tumour cell line growth inhibition, 48 h
Calls of active or inactive are those of the source. No stated cut-off is given here; in the data, active = GI50 up to about 1.1 µM and inactive = higher.
Pick one: yes (1) = active, no (0) = inactive

Worked cases, answers included:
COMPOUND	ANSWER_LABEL
Cc1ccc(S(=O)(=O)N2CCCC2C(=O)O[C@H]2CC[C@H]3CC=C[C@H]32)cc1 (some centres not stated)	no (0)
C1CN(C23OC4(N5CCOCC5)C5C6CC(C7C6C4C72)C53)CCO1 (configuration not stated)	no (0)

Check the results log: what was the call for COc1ccc(/C(C#N)=C(/N)SCc2ccccc2Cl)cc1 ?
no (0)

Now try CCc1ncc(C(C)(O)c2ccccc2)n1Cc1ccccc1 (configuration not stated) .
no (0)
